# Protocol Description: Selectivity index, ratio of CC50 to EC50
# Format: functional
Record form. Attribute: Selectivity. Fill in for each entry.
When you answer, write just the number.

Incoming: Endpoint output: Selectivity of CC(C)OC(=O)c1cc(CO)cn1S(=O)(=O)c1cc(Cl)ccc1N . Value?
Outgoing: 1160

Incoming: Note, next up: CCOC(=O)c1cc(CO)cn1S(=O)(=O)c1cc(Cl)ccc1N
Outgoing: 5330

Incoming: Follow-up entry: CCOC(=O)c1cc(C(C)O)cn1S(=O)(=O)c1cc(Cl)ccc1N (stereo unspecified)
Outgoing: 460

Incoming: Try CCOC(=O)c1cccn1S(=O)(=O)c1c(N)cccc1Cl next.
Outgoing: 2.5

Incoming: Subsequent entry: CC(C)OC(=O)c1cc(CNc2ccccc2)cn1S(=O)(=O)c1cc(Cl)ccc1N
Outgoing: 200

Incoming: Another compound to look at: C=Cc1cc(C(=O)OCC)n(S(=O)(=O)c2cc(Cl)ccc2N)c1
Outgoing: 274
